The following compounds were reported with pKi values on Serine protease 1 (Homo sapiens, UniProt P07477) in different studies.
Sequence (P07477 whole entry): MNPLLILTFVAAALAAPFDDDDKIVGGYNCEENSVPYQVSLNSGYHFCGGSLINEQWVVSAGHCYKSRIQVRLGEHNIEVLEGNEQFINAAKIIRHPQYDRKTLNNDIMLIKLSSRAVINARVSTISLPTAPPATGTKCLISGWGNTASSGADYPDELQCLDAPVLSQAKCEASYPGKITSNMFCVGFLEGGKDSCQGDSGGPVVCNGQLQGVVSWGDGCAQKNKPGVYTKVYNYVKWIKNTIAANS
pKi: −log10 of the molar value.
assay.endpoint: pKi

| compound | target | pKi |
| --- | --- | --- |
| N=C(N)c1ccc([C@@H]2C3CCCC3C3C(=O)N(Cc4ccc5c(c4)OCO5)C(=O)C32)cc1 (mixture of isomers) | Serine protease 1 (Homo sapiens, UniProt P07477) | 6.15 |
| Nc1nc2cc(NC(=O)c3cc4ccccc4cc3O)ccc2[nH]1 | Serine protease 1 (Homo sapiens, UniProt P07477) | 4.43 |
| C[C@H](NC(=O)[C@H](N)CO)C(=O)N[C@@H](CCCNC(=N)N)C(=O)NCCCO | Serine protease 1 (Homo sapiens, UniProt P07477) | 4.82 |
| N=C(N)NCCC[C@H](NC(=O)[C@H](CCC1CCCCC1)NC(=O)[C@H](N)CO)C(=O)O | Serine protease 1 (Homo sapiens, UniProt P07477) | 4.57 |
| C[C@H](NC(=O)[C@H](N)CO)C(=O)N[C@@H](CCCNC(=N)N)C(=O)NCCCCCCCN | Serine protease 1 (Homo sapiens, UniProt P07477) | 4.52 |

a. C[C@H](NC(=O)[C@H](N)CO)C(=O)N[C@@H](CCCNC(=N)N)C(=O)NCCCCO
b. NC(N)=Nc1ccc(NC(=O)c2cc3ccccc3cc2O)cc1
c. NC(N)=Nc1ccc(NC(=O)c2cc3ccccc3c(O)c2O)cn1
d. CN1[C@@H](c2ccc(C(=N)N)cc2)C2C(=O)N(Cc3ccc4c(c3)OCO4)C(=O)C2C1(C)C (mixture of isomers)
Sequence the entries by pKi, beginning with the highest number. List the labels according to the requested ordering.
d, a, b, c
(d: 5.96, a: 5.00, b: 4.80, c: 4.38)
